Molecular target: Jak3 (Homo sapiens)
Construct: The kinase domain of humanJAK3 was amplified from U937mRNA; His tag (from the pFastBac HTb vector; purified on nickel chelate); made in house; host or cells: baculovirus; Sf9 for virus, High Five insect cells for production
Sequence (P52333 822-1111 limits assumed): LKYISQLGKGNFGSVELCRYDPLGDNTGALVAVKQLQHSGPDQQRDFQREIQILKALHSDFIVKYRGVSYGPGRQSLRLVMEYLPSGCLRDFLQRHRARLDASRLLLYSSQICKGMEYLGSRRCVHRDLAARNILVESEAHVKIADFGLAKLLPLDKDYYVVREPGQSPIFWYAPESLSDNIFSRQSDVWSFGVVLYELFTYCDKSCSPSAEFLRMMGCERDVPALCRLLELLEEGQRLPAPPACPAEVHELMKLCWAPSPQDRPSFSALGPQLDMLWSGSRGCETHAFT
Assay: JAK kinase assay (ELISA or Alphascreen), JAK3 kinase domain
Type: biochemical
Settings: capacity to inhibit 50% of JAK activity at 20 μM, standard conditions
MEASURED_PROPERTY: inhibition at 20 µM

Prompt: // lookup inhibition at 20 µM | system=Jak3 (Homo sapiens) | key= `C=CC(=O)Nc1ccc2ncn(-c3cncc(NC)n3)c2c1`
Response: > 50%

Prompt: Please provide the recorded inhibition at 20 µM for `C=CC(=O)Nc1ccc2ncn(-c3cncc(-c4cccnc4)n3)c2c1` , tested on Jak3 (Homo sapiens).
Response: > 50%

Prompt: Kindly state the measured inhibition at 20 µM obtained for `C=CC(=O)Nc1ccc2ncn(-c3cncc(-c4ccncc4)n3)c2c1` with Jak3 (Homo sapiens).
Response: > 50%

Prompt: // map `C=CC(=O)Nc1ccc2ncn(-c3cncc(N(C)C(C)C)n3)c2c1` to recorded inhibition at 20 µM (system: Jak3 (Homo sapiens))
Response: > 50%

Prompt: Please provide the recorded inhibition at 20 µM for `C=CC(=O)Nc1ccc2ncn(-c3cncc(N4CCCC4)n3)c2c1` , tested on Jak3 (Homo sapiens).
Response: > 50%

Prompt: Hi! What's the reported inhibition at 20 µM for `C=CC(=O)Nc1ccc2ncn(-c3cncc(N(C)C)n3)c2c1` on Jak3 (Homo sapiens)?
Response: > 50%

Prompt: Find the measured inhibition at 20 µM: item `C=CC(=O)Nc1ccc2ncn(-c3cncc(-c4ccccc4)n3)c2c1` , target or system Jak3 (Homo sapiens).
Response: > 50%

Prompt: Given the entry `C=CC(=O)Nc1ccc2ncn(-c3cncc(NC(C)C)n3)c2c1` , what inhibition at 20 µM was observed with Jak3 (Homo sapiens)?
Response: > 50%

Prompt: Reported inhibition at 20 µM for Jak3 (Homo sapiens), given `C=CC(=O)Nc1ccc2ncn(-c3cncc(N[C@@H](C)CC)n3)c2c1` ?
Response: > 50%

Prompt: Notebook entry, Jak3 (Homo sapiens) assay: inhibition at 20 µM of `C=C(C)C(=O)Nc1ccc2ncn(-c3cncc(NC(C)(C)C)n3)c2c1` = ?
Response: > 50%

Prompt: So what inhibition at 20 µM did `C=CC(=O)Nc1ccc2ncn(-c3cncc(-c4ccc(F)c(Cl)c4)n3)c2c1` get with Jak3 (Homo sapiens)?
Response: > 50%

Prompt: State its inhibition at 20 µM on Jak3 (Homo sapiens): C=CC(=O)Nc1ccc2ncn(-c3cncc(NC(C)(C)C)n3)c2c1 [drawing 98]
Response: > 50%

Prompt: What measured inhibition at 20 µM is associated with `C=CC(=O)Nc1ccc2ncn(-c3cncc(N4CCOCC4)n3)c2c1` on Jak3 (Homo sapiens)?
Response: > 50%

Prompt: // lookup inhibition at 20 µM | system=Jak3 (Homo sapiens) | key= `C=CC(=O)Nc1ccc2ncn(-c3cncc(-c4ccsc4)n3)c2c1`
Response: > 50%

Prompt: For the record `C=CC(=O)Nc1ccc2ncn(-c3cncc(-c4ccc(C)o4)n3)c2c1` , what value of inhibition at 20 µM is listed for Jak3 (Homo sapiens)?
Response: > 50%

Prompt: Find inhibition at 20 µM (Jak3 (Homo sapiens)) for the entry `C#CC(=O)Nc1ccc2ncn(-c3cncc(NC(C)(C)C)n3)c2c1`
Response: > 50%

Prompt: Lab request: please report inhibition at 20 µM under test system Jak3 (Homo sapiens) for `C=CC(=O)Nc1ccc2ncn(-c3cncc(N4CCN(C)CC4)n3)c2c1`
Response: > 50%

Prompt: Look up inhibition at 20 µM with Jak3 (Homo sapiens) for this compound: `C=CC(=O)Nc1ccc2ncn(-c3cncc(N[C@@H](C)c4ccccc4)n3)c2c1`
Response: > 50%

Prompt: Form: Entry = `C=CC(=O)Nc1ccc2ncn(-c3cncc(-c4cn[nH]c4)n3)c2c1` | System = Jak3 (Homo sapiens) | inhibition at 20 µM = ____
Response: > 50%

Prompt: Quick check: inhibition at 20 µM on Jak3 (Homo sapiens), item `C=CC(=O)Nc1ccc2ncn(-c3cncc(NCC4CC4)n3)c2c1` ?
Response: > 50%

Prompt: Fill in the recorded inhibition at 20 µM for this compound, with Jak3 (Homo sapiens) as test system: `C=CC(=O)Nc1ccc2ncn(-c3cncc(N4CCCCC4)n3)c2c1`
Response: > 50%

Prompt: Reported inhibition at 20 µM for Jak3 (Homo sapiens), given `C=CC(=O)Nc1ccc2ncn(-c3cncc(Cl)n3)c2c1` ?
Response: > 50%

Prompt: What value of inhibition at 20 µM on Jak3 (Homo sapiens) does `C=CC(=O)Nc1ccc2ncn(-c3cncc(N[C@H](C)CC)n3)c2c1` have?
Response: > 50%
